Examples of compounds with documented viability at 1.5 µM follow.
- Test system: MKN-45
- PROTOCOL DESCRIPTION: Cytotoxicity against human MKN45 cells assessed as cell viability at 1.5 uM after 72 hrs by MTT assay relative to control
- Type: functional
- TEST CONTEXT: MKN-45, 72 h, read-out: Activity
REPORTED ENDPOINT: viability at 1.5 µM (%)

[
  {
    "COMPOUND": "CC(=O)O[C@H]1C[C@@]2(C)[C@@H](C[C@@H](O)[C@H]3[C@@]4(C)CC[C@@H](OC(=O)c5nccnc5C(=O)O)[C@@H](C)[C@@H]4CC[C@@]32C)/C1=C(\\CCC=C(C)C)C(=O)OCc1ccccc1",
    "TEST SYSTEM": "MKN-45",
    "VALUE": 95
  },
  {
    "COMPOUND": "CC(=O)O[C@H]1C[C@@]2(C)[C@@H](C[C@@H](O)[C@H]3[C@@]4(C)CC[C@@H](OC(=O)c5ccccc5C(=O)O)[C@@H](C)[C@@H]4CC[C@@]32C)/C1=C(\\CCC=C(C)C)C(=O)OCc1ccccc1",
    "TEST SYSTEM": "MKN-45",
    "VALUE": 78
  },
  {
    "COMPOUND": "CC(=O)O[C@H]1C[C@@]2(C)[C@@H](C[C@@H](O)[C@H]3[C@@]4(C)CC[C@@H](OC(=O)CCC(=O)O)[C@@H](C)[C@@H]4CC[C@@]32C)/C1=C(\\CCC=C(C)C)C(=O)OCc1ccccc1",
    "TEST SYSTEM": "MKN-45",
    "VALUE": 74
  },
  {
    "COMPOUND": "CC(=O)O[C@H]1C[C@@]2(C)[C@@H](C[C@@H](O)[C@H]3[C@@]4(C)CC[C@@H](OC(=O)c5ccccc5C(=O)N5CCOCC5)[C@@H](C)[C@@H]4CC[C@@]32C)/C1=C(\\CCC=C(C)C)C(=O)OCc1ccccc1",
    "TEST SYSTEM": "MKN-45",
    "VALUE": 104
  },
  {
    "COMPOUND": "CC(=O)O[C@H]1C[C@@]2(C)[C@@H](C[C@@H](O)[C@H]3[C@@]4(C)CC[C@@H](OC(=O)CCCCCCCN)[C@@H](C)[C@@H]4CC[C@@]32C)/C1=C(\\CCC=C(C)C)C(=O)OCc1ccccc1",
    "TEST SYSTEM": "MKN-45",
    "VALUE": 16
  },
  {
    "COMPOUND": "CC(=O)O[C@H]1C[C@@]2(C)[C@@H](C[C@@H](O)[C@H]3[C@@]4(C)CC[C@@H](OC(=O)[C@@H](N)CCCCN)[C@@H](C)[C@@H]4CC[C@@]32C)/C1=C(\\CCC=C(C)C)C(=O)OCc1ccccc1",
    "TEST SYSTEM": "MKN-45",
    "VALUE": 91
  },
  {
    "COMPOUND": "CC(=O)O[C@H]1C[C@@]2(C)[C@@H](C[C@@H](O)[C@H]3[C@@]4(C)CC[C@@H](OC(=O)c5ccccc5C(=O)N5CCN(C)CC5)[C@@H](C)[C@@H]4CC[C@@]32C)/C1=C(\\CCC=C(C)C)C(=O)OCc1ccccc1",
    "TEST SYSTEM": "MKN-45",
    "VALUE": 104
  },
  {
    "COMPOUND": "CC(=O)O[C@H]1C[C@@]2(C)[C@@H](C[C@@H](O)[C@H]3[C@@]4(C)CC[C@@H](OC(=O)C(N)CC(C)C)[C@@H](C)[C@@H]4CC[C@@]32C)/C1=C(\\CCC=C(C)C)C(=O)OCc1ccccc1 (some centres undefined)",
    "TEST SYSTEM": "MKN-45",
    "VALUE": 95
  },
  {
    "COMPOUND": "CC(=O)O[C@H]1C[C@@]2(C)[C@@H](C[C@@H](O)[C@H]3[C@@]4(C)CC[C@@H](OC(=O)CCN)[C@@H](C)[C@@H]4CC[C@@]32C)/C1=C(\\CCC=C(C)C)C(=O)OCc1ccccc1",
    "TEST SYSTEM": "MKN-45",
    "VALUE": 23
  }
]
